Test system: Renilla luciferase RNA
Method: Barcoded aptazyme variant library screen: un-cleaved Renilla luciferase RNA by barcode read counts, HEK293-T cells
Format: cell-based
Run conditions: un-cleaved Renilla luciferase RNA by barcode read counts; with 1 mM theophylline (ON) over without theophylline (OFF); HEK293-T cells; triplicate
Measured endpoint: Fold change in RNA expression between the ON state and the OFF state
The reply should be a number, written without any unit.

Some molecules with known Fold change in RNA expression between the ON state and the OFF state results, for comparison:
RA305 (nucleic acid, expressed or natural sequence) DNA: GCGCGTCCTGGATTCGCGGAAACGCGTACATCAGTGATACCAGCATCGTCTTGATGCCCTTGGCAGCACTCAGCTGACGAGTCCCAAATAGGACGAAACGCGC : 1.0
RA312 (nucleic acid, expressed or natural sequence) DNA: GCGCGTCCTGGATTCGCGGAAACGCGTACATCCAGCTGACGAGGAATACCAGCATCGTCTTGATGCCCTTGGAAGTCCGTCCCAAATAGGACGAAACGCGC : 1.0
RA428 (nucleic acid, expressed or natural sequence) DNA: GCGCGTCCTGGATTCGCGGAAACGCGTACATCCAGCTGACGAGTCCGAGAATACCAGCATCGTCTTGATGCCCTTGGAAGTCTCCAAATAGGACGAAACGCGC : 0.6
RA430 (nucleic acid, expressed or natural sequence) DNA: GCGCGTCCTGGATTCGCGGAAACGCGTACATCCAGCTGAGAGAATACCAGCATCGTCTTGATGCCCTTGGAAGTCTCCGAGTCCCAAATAGGACGAAACGCGC : 0.6
RA474 (nucleic acid, expressed or natural sequence) DNA: GCGCGTCCTGGATTCGCGGAAACGCGTACATCCAGCTGACGAGTCCCAAATAGGACGAAACGCGCGGAATACCAGCATCGTCTTGATGCCCTTGGAAGTCCGC : 0.3

Query :: Suppose we examine the molecule RA444 (nucleic acid, expressed or natural sequence) DNA: GCGCGTCCCGGAATACCAGCATCGTCTTGATGCCCTTGGAAGTCCGGCTGGATTCGCGGAAACGCGTACATCCAGCTGACGAGTCCCAAATAGGACGAAACGCGC ; what Fold change in RNA expression between the ON state and the OFF state value has been reported?
Result :: 0.6

Query :: Now the same for RA432 (nucleic acid, expressed or natural sequence) DNA: GCGCGTCCTGGATTCGCGGAAACGCGTACATCCAGCTGACGAGTCCCACCGGAATACCAGCATCGTCTTGATGCCCTTGGAAGTCCGGAATAGGACGAAACGCGC
Result :: 0.6
